- TGT: Alpha-2C adrenergic receptor (Homo sapiens, UniProt P18825)
- Sequence (P18825 whole entry): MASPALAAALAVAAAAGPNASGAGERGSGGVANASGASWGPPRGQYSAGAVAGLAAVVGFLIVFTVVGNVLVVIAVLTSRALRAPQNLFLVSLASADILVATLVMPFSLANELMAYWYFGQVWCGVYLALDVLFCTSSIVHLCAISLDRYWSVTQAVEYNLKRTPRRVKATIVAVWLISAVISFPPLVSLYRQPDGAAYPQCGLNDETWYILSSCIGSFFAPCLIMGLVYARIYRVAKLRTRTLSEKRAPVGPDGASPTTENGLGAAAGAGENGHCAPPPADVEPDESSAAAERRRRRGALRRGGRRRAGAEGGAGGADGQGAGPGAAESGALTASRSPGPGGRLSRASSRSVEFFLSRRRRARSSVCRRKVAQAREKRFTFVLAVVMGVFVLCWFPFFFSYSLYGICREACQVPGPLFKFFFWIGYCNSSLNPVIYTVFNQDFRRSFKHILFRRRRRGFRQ
- PROCEDURE_SUMMARY: Agonistic potency at human adrenergic Alpha-2C receptor expressed in CHO cells assessed as forskolin-induced cAMP accumulation
- Type: functional, cell-based
- MEASUREMENT_SETUP: read-out: Log EC50 (converted)
Entries and their measured EC50 follow.

C[C@@H](Oc1ccccc1-c1cccc([N+](=O)[O-])c1)C1=NCCN1 : 10 nM

Problem: Request - read-out EC50 | tested on Alpha-2C adrenergic receptor (Homo sapiens, UniProt P18825) | compound `C[C@@H](Oc1ccccc1-c1ccccc1)C1=NCCN1`
Result: 112 nM

Problem: Request - read-out EC50 | tested on Alpha-2C adrenergic receptor (Homo sapiens, UniProt P18825) | compound `C[C@H](Oc1ccccc1-c1cccc([N+](=O)[O-])c1)C1=NCCN1`
Result: 741 nM

Problem: Request - read-out EC50 | tested on Alpha-2C adrenergic receptor (Homo sapiens, UniProt P18825) | compound `C[C@H](Oc1ccccc1-c1ccccc1)C1=NCCN1`
Result: 18.6 nM

* * *

Measurement record for Alpha-2B adrenergic receptor (Homo sapiens); quantity recorded: Ki.
Write the value in nM as a bare number.

These solved cases illustrate the format of a correct answer.
C[C@H](Oc1ccccc1-c1cccc([N+](=O)[O-])c1)C1=NCCN1 : 1580
C[C@@H](Oc1ccccc1-c1cccc([N+](=O)[O-])c1)C1=NCCN1 : 741
C[C@@H](Oc1ccccc1-c1ccccc1)C1=NCCN1 : 1260

Problem: Dear colleague, I am looking for the recorded Ki of the following compound: `C[C@H](Oc1ccccc1-c1ccccc1)C1=NCCN1`
Result: 589

* * *

- TGT: Alpha-2A adrenergic receptor (Homo sapiens)
- Sequence (P08913 whole entry): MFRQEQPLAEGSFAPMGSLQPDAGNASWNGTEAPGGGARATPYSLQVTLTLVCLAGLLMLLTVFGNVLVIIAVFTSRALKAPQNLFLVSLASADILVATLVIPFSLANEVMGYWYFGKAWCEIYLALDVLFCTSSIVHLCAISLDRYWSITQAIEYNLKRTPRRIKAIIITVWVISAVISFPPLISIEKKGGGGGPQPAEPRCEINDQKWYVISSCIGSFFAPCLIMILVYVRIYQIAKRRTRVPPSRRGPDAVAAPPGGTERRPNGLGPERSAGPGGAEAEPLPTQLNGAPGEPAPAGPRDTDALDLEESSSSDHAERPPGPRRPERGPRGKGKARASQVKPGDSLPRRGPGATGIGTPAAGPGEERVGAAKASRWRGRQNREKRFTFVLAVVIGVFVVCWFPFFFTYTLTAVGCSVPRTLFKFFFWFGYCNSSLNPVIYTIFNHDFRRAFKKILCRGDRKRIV
- PROCEDURE_SUMMARY: Agonistic potency at human adrenergic alpha-2A receptor expressed in CHO cells assessed as forskolin-induced cAMP accumulation
Entries and their measured pEC50 follow.
Scale explanation: pEC50 corresponds to minus log10 of a concentration expressed in moles per litre.

Problem: Dear colleague, I am looking for the recorded pEC50 of the following molecule: `C[C@@H](Oc1ccccc1-c1ccccc1)C1=NCCN1`
Result: 4.54

Problem: Dear colleague, I am looking for the recorded pEC50 of the following molecule: `C[C@H](Oc1ccccc1-c1ccccc1)C1=NCCN1`
Result: 7.13

* * *

- TGT: Alpha-2A adrenergic receptor (Homo sapiens)
MEASURED_ATTRIBUTE: Ki
Just so you know, I need the unit written after the number.

These solved cases illustrate the format of a correct answer.
C[C@H](Oc1ccccc1-c1ccccc1)C1=NCCN1 : 91.2 nM
C[C@@H](Oc1ccccc1-c1ccccc1)C1=NCCN1 : 186 nM
C[C@@H](Oc1ccccc1-c1cccc([N+](=O)[O-])c1)C1=NCCN1 : 81.3 nM

Moving on to the next compound.
Problem: Request - read-out Ki | tested on Alpha-2A adrenergic receptor (Homo sapiens) | compound `C[C@H](Oc1ccccc1-c1cccc([N+](=O)[O-])c1)C1=NCCN1`
Result: 72.4 nM
